What MIC was measured for each of the following?
system: Candida albicans; assay: Antifungal activity against Candida albicans ATCC 10231 after 24 hrs by microdilution assay; type: functional
Report the value in µM with no unit label.

# compound CC(=O)OCC1=CCc2c(cc(O)c3c(=O)cc(C)oc23)OC1 ; its MIC = 9.9

The recorded MIC for Cc1cc(=O)c2c(O)cc3c(c2o1)CC=C(CO)CO3 is 11.4

MIC in this record for C=CCc1c(O)cc(O)c2c(=O)cc(C)oc12 : 13.5

For COc1cc2c(c(OC)c1C(C)=O)CC=C(CO)CO2 the compound record lists MIC as 11.2

----------
tested on: Cryptococcus neoformans; assay: Antifungal activity against Cryptococcus neoformans after 24 hrs by microdilution assay; format: functional
Outcome measure: MIC (µM)
Numbers only here, please. The scale is µM.

Measured MIC of Cc1cc(=O)c2c(O)cc(O)cc2o1 [NOREUGENIN] : 16.3

Just so you know, measured MIC for Cc1cc(=O)c2c(O)cc3c(c2o1)CC=C(CO)CO3 came out at 5.7

So, COc1cc2c(c(OC)c1C(C)=O)CC=C(CO)CO2 ? Its MIC was 11.2

Measured MIC of C[C@@H]1[C@H](O)[C@@H](C)/C=C/C=C/C=C/C=C/C=C/C=C/C=C/[C@H](O[C@@H]2O[C@H](C)[C@@H](O)[C@H](N)[C@@H]2O)C[C@@H]2O[C@](O)(C[C@@H](O)C[C@@H](O)[C@H](O)CC[C@@H](O)C[C@@H](O)CC(=O)O[C@H]1C)C[C@H](O)[C@H]2C(=O)O [AMPHOTERICIN B] : 0.42
